Every entry's value here was drawn from the Biogen ADME set (Fang et al. 2023).

Details: pH 6.8
# cutoff 40 µg/mL applies to aqueous solubility; >= gives met, < gives not met

>>> assigned_category("c1cc(CN2CCC(c3ccn[nH]3)CC2)ccn1")
"not met"
>>> assigned_category("CSCC(=O)N1CCN(C(=O)CSC)C2(CCCCC2)C1")
"met"
>>> assigned_category("Cc1cccc(-n2c(S)nnc2CNc2ccc(F)cc2)c1")
"met"
>>> assigned_category("CS(=O)(=O)c1cccc(CNc2nc(Nc3ccc4c(c3)CCC(=O)N4)ncc2C(F)(F)F)c1")
"not met"
>>> assigned_category("CS(=O)(=O)c1ccc(-c2cnc(NCc3ccco3)n3cnnc23)cc1")
"not met"
>>> assigned_category("O=S(=O)(Cc1csc(C2CCCC2)n1)C1CCCC1")
"not met"

----------
Below, each entry is listed alongside its reported log10(intrinsic clearance, rat liver microsomes).
READOUT LABEL: log10(intrinsic clearance, rat liver microsomes) (log10 of the value in mL/min/kg)

>>> obs_value("O=C1NCCN(C(=O)c2ccncc2)C1c1ccccc1Cl (stereo unspecified)")
1.97
>>> obs_value("CCn1cc(C(=O)O)c(=O)c2c(N)c(F)c(NC3CCCCC3)cc21")
2.05
>>> obs_value("CN(Cc1ccc(CO)cc1)Cc1cc(F)c(F)c(F)c1")
2.57
>>> obs_value("CC(=O)NCCNc1cc(Cl)nn2c(-c3cccc(S(=O)(=O)N(C)C)c3)c(C)nc12")
2.90
>>> obs_value("O=C1CC2(CCN(C(=O)NCc3ccccc3)CC2)Oc2ccccc21")
2.79
>>> obs_value("C=CCn1cnc2c(Cl)cc(-c3ccc(C(=O)NC4CC4)o3)cc21")
2.06
>>> obs_value("CC(C)(C)C(=O)N1CCC(CN2C(=O)C(=O)N(C3CCCC3)C2=O)CC1")
2.46
>>> obs_value("Cc1cc(C)nc(-n2nc(C)c(CC(=O)NC3CCCCCC3)c2C)n1")
2.92
>>> obs_value("CN(CC#N)C(=O)c1cccc(CN2CCCC2)c1")
2.51
>>> obs_value("COc1ccc2c(c1)CN(c1nc(C)cc(C)n1)CC2")
2.68
>>> obs_value("CN1CCN(C(=O)C2(NC(=O)c3cc(Cl)c4c(c3)OCO4)CCCC2)CC1")
1.58

----------
READOUT LABEL: intrinsic clearance, rat liver microsomes (mL/min/kg)

>>> obs_value("CN(C)c1cccc(Cn2ccnc2-c2ccc(O)cc2)c1")
1040
>>> obs_value("c1cc(CNc2ncc(-c3cnccn3)c(C3CC3)n2)ccn1")
1310
>>> obs_value("Cc1cccnc1NC(=O)CCc1ccc(F)cc1")
764
>>> obs_value("CCc1ccc(CC)c(C(=O)CSc2nncs2)c1")
1550
>>> obs_value("COc1ccccc1C(=O)CSc1nncn1C1CC1")
463
>>> obs_value("O=C(CNC(=O)c1ccccc1Cl)Nc1cccc2c1CCCC2")
1840
>>> obs_value("O=C([C@H]1CCCN(Cc2ccc(F)cc2)C1)N1CCc2ccccc2C1")
3660
>>> obs_value("O=C1CNC(=O)N1CCCN1CCc2sccc2C1")
28.6
>>> obs_value("Cc1oc2ncnc(NCc3cc(F)cc4c3OCOC4)c2c1C")
2040
>>> obs_value("Cn1c(C(=O)N2CCN(CCc3ccccc3)C(=O)C2)cc(=O)n(C)c1=O")
31.7
>>> obs_value("CCCCc1c(C)[nH]c2nc(N(Cc3cccs3)C(C)=O)nn2c1=O")
81
>>> obs_value("CCN(CC#N)C(=O)c1nn(-c2ccc(F)cc2)c2c1CCCC2")
397
>>> obs_value("Cc1nnc(NC(=O)c2nn(-c3ccc(F)cc3)c3c2CCCC3)s1")
227
>>> obs_value("CN(C)c1cccc(C2CCN(c3ncccn3)CC2)n1")
2250
>>> obs_value("COc1cccc(O[C@H]2CCN(C(=O)c3cc(-c4ccc(F)cc4)on3)CC[C@@H]2O)c1")
577
>>> obs_value("Cc1cnn(Cc2nnc(-c3ccccc3)s2)c1")
449
>>> obs_value("O=C(COC(=O)c1cc(O)nc2ccccc12)c1ccc(Oc2c(Cl)cccc2[N+](=O)[O-])cc1")
184
>>> obs_value("Cc1ccc(C)c(C(=O)Nc2cnc3c(c2)c(C)nn3C)c1")
129
>>> obs_value("Cc1cn[nH]c1C1(C)CCN(Cc2cnn(C)c2)CC1")
79.1
>>> obs_value("Nc1ncnc2c1c(-c1cnc3[nH]ccc3c1)nn2C1CCCC1")
1210
>>> obs_value("COc1nn(C)cc1C(=O)Nc1cccc(-c2cnc3n2CCC3)c1")
70.6
